Where do the numbers come from? From patent US20150315188A1.

Molecular target: Human adrenergic α1B receptor (Homo sapiens, UniProt P35368)
Sequence (P35368 1-520): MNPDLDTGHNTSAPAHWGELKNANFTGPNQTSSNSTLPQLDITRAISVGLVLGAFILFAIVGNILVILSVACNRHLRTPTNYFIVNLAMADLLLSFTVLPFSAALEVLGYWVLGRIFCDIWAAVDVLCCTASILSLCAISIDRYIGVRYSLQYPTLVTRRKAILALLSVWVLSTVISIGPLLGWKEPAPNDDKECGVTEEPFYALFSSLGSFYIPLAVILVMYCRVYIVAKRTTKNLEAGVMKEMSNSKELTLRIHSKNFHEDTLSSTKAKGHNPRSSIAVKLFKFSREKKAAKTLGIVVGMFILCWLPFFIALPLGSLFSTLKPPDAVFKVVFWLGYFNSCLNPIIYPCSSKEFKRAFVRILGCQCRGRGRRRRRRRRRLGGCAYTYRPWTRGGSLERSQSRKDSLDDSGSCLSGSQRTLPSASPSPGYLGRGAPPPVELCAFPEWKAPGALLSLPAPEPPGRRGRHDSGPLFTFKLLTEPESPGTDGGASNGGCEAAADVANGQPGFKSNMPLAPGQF
Test: Radioligand binding, adrenergic α1B (Protocol Group B)
Set-up: purchased Milipore (Millipore)
Settings: 0.1 μM compound; Protocol Group B; 0.1 µM
# key: entry, value: Percentage inhibition of ligand binding, Adrenergic α1B (0.1 μM)
Express the result in % but write the number alone.

Solved entries (count: 5):
>  <compound>
OC(Cn1c2c(c3cc(Cl)cc(F)c31)C1CCCN1CC2)c1ccncc1 (single isomer, unassigned) [135b]

>  <unit abbrev>
%

>  <test value>
64

$$$$
>  <compound>
Cc1cc(Cl)c2c(c1)c1c(n2CC(O)c2ccncc2)CCN2CCCC12 (single isomer, unassigned) [142b]

>  <unit abbrev>
%

>  <test value>
76

$$$$
>  <compound>
Cc1cc(Br)c2c(c1)c1c(n2CC(O)c2ccncc2)CCN2CCCC12 (single isomer, unassigned) [145a]

>  <unit abbrev>
%

>  <test value>
46

$$$$
>  <compound>
CC(O)(Cn1c2c(c3cc(F)cc(Cl)c31)C1CCCN1CC2)c1cccnc1 (single isomer, unassigned) [89a]

>  <unit abbrev>
%

>  <test value>
12

$$$$
>  <compound>
Cc1ccc2c(c1)c1c(n2CC(O)c2ccncc2)CCN2CCCC12 (single isomer, unassigned) [Compound No. 178a]

>  <unit abbrev>
%

>  <test value>
73

$$$$

Reported Percentage inhibition of ligand binding, Adrenergic α1B (0.1 μM) for Cc1cc(F)cc2c3c(n(CC(O)c4ccncc4)c12)CCN1CCCC31 (single isomer, unassigned) [136b] : what is it?
24

# query: Percentage inhibition of ligand binding, Adrenergic α1B (0.1 μM) of entry OC(Cn1c2c(c3cc(Cl)ccc31)C1CCCN1CC2)c1ccncc1 (single isomer, unassigned) [143d]
15

---

Biological target: Human adrenergic α2A receptor (Homo sapiens)
Sequence (P08913 1-465): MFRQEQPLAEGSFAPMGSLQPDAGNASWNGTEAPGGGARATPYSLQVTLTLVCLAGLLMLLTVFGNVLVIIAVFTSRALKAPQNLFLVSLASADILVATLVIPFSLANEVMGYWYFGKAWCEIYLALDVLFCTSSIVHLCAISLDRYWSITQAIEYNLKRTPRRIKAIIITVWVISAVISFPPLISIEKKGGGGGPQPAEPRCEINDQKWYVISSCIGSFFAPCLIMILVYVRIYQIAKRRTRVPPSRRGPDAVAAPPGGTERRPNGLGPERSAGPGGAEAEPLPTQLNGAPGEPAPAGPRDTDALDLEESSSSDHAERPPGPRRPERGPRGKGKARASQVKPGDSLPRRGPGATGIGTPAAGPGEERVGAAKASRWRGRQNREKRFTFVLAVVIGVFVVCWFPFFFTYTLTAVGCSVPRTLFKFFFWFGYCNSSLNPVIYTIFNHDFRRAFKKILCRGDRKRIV
Assay: Radioligand binding, adrenergic α2A (Protocol Group B)
Design: purchased Milipore (Millipore)
Details: 0.3 μM compound; Protocol Group B; 0.3 µM
Entries and their Percentage inhibition of ligand binding, Adrenergic α2A (0.3 μM) values follow.
The answer is to be given in %; state only the numeric part.

// solved cases for Percentage inhibition of ligand binding, Adrenergic α2A (0.3 μM) follow
>  <molecule>
Cc1cc(C)c2c(c1)c1c(n2CC(C)(O)c2cccnc2)CCN2CCCC12 (single isomer, unassigned) [44b]

>  <unit abbrev>
%

>  <test value>
98

$$$$
>  <molecule>
Cc1ccc2c(c1)c1c(n2CC(O)c2ccncc2F)CCN2CCCC12 (single isomer, unassigned) [14a]

>  <unit abbrev>
%

>  <test value>
39

$$$$
>  <molecule>
Cc1ccc2c(c1)c1c(n2CC(C)(O)c2cccnc2)CC2CCCN2C1 (single isomer, unassigned) [38c]

>  <unit abbrev>
%

>  <test value>
31

$$$$

For Human adrenergic α2A receptor (Homo sapiens), provide Percentage inhibition of ligand binding, Adrenergic α2A (0.3 μM) of CC(O)(Cn1c2c(c3cc(F)cc(Cl)c31)C1CCCN1CC2)c1cccnc1 (single isomer, unassigned) [89c] please.
40
